target: D(2) dopamine receptor (Homo sapiens); assay: Antagonistic activity at human dopamine D2 receptor measured after 60 mins by Ultra Lance cAMP assay
Sequence (P14416 whole entry): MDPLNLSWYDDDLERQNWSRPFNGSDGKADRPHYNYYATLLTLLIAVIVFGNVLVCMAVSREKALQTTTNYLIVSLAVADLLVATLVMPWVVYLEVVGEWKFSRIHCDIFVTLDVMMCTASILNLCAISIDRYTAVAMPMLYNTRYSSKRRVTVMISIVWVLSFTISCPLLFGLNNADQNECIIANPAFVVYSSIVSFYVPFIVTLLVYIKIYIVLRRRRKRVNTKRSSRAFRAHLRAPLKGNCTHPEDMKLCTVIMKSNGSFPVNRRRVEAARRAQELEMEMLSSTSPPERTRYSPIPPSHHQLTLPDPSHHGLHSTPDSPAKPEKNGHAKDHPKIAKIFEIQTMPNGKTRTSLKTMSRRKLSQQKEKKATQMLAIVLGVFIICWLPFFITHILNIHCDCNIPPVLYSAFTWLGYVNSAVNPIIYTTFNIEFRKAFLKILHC
MEASUREMENT_LABEL: IC50 (nM)

CNC(=O)c1cccc(OCCCCN2CCN(c3cccc(Cl)c3Cl)CC2)c1 | 32

(a) CNC(=O)c1cccc(OCCCCN2CCN(c3cccc4c3OC(F)(F)O4)CC2)c1
(b) CC(=O)Nc1cccc(OCCCCN2CCN(c3cccc(Cl)c3Cl)CC2)c1
(c) CNC(=O)c1cccc(OCCCCN2CCN(c3cccc(Cl)c3Cl)CC2)c1C
(d) CNC(=O)c1cc(OCCCCN2CCN(c3cccc(Cl)c3Cl)CC2)ccc1F
Query: Please order the records by their reported IC50, lowest number first. Use the labels to give the requested order.
Response: a, d, b, c

###

target: Voltage-gated inwardly rectifying potassium channel KCNH2 (Homo sapiens, UniProt Q12809)
Sequence (Q12809 whole entry): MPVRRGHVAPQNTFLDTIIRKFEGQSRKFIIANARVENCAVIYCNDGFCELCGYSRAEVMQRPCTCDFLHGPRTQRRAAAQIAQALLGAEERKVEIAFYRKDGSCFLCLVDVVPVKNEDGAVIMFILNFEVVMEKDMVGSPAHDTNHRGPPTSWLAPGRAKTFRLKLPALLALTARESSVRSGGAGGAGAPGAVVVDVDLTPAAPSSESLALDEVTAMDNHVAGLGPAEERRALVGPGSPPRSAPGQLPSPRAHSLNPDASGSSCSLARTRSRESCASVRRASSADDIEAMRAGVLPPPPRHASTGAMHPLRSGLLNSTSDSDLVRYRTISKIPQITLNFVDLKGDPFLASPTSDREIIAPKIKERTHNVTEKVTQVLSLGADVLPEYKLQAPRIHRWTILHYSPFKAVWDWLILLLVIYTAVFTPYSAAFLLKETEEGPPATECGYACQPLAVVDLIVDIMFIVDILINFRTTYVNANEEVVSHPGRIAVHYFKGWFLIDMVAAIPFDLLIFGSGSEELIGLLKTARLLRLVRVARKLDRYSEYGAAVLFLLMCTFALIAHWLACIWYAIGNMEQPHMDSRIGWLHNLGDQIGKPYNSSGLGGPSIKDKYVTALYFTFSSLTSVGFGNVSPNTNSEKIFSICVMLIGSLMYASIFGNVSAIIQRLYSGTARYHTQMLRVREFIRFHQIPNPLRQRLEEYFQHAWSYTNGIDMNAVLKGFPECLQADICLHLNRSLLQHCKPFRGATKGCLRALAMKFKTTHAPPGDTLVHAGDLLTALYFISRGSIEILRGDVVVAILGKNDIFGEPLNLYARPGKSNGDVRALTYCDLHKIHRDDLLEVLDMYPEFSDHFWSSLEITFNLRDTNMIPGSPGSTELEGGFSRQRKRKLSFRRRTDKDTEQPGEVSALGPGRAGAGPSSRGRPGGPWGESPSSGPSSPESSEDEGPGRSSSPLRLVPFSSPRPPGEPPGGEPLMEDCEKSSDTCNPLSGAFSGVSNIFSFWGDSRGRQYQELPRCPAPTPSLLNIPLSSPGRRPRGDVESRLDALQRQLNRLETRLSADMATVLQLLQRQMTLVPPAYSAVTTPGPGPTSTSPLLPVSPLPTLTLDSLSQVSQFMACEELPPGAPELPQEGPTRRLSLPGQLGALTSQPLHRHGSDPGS
MEASUREMENT_LABEL: IC50 (nM)
Report only the number, with the unit nM understood.

Query: State the recorded IC50 for this entry: CNC(=O)c1cccc(OCCCCN2CCC(c3noc4cc(F)ccc34)CC2)c1
Response: 1030

###

experiment: in vivo; conditions: mouse, po
Description: Therapeutic index, ratio of ED50 for toxicity in orally dosed mouse by catalepsy test to ED50 for antipsychotic activity in mouse
MEASUREMENT_LABEL: selectivity ratio
API doc: respond with a numeric literal and nothing else, no unit.

Query: So what does the record say about selectivity ratio for CNC(=O)c1cccc(OCCCCN2CCC(c3noc4cc(F)ccc34)CC2)c1 ?
Response: 113

###

target: 5-hydroxytryptamine receptor 1A (Homo sapiens, UniProt P08908); experiment: Agonistic activity at human 5-HT1A receptor measured after 60 mins by Ultra Lance cAMP assay
Sequence (P08908 whole entry): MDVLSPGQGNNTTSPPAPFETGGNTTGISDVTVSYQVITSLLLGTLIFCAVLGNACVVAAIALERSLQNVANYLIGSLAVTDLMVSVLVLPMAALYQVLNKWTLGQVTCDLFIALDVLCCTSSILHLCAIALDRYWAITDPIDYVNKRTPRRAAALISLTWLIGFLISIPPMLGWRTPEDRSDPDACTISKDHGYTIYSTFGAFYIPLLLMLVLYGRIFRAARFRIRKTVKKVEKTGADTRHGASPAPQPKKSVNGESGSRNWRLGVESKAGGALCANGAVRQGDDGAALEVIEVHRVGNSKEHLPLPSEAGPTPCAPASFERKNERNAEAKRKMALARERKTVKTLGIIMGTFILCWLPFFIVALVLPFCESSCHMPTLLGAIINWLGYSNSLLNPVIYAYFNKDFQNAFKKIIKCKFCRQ
MEASUREMENT_LABEL: EC50 (µM)

Below, each entry is followed by its recorded EC50 result.
CNC(=O)c1cc(OCCCCN2CCN(c3cccc4sccc34)CC2)ccc1F | 0.006
CNC(=O)c1cccc(OCCCCN2CCC(c3noc4cc(F)ccc34)CC2)c1 | 0.013
CNC(=O)c1cc(OCCCCN2CCN(c3cccc(Cl)c3Cl)CC2)cc(C(C)=O)c1 | 0.137
CNC(=O)c1cc(F)cc(OCCCCN2CCN(c3cccc(Cl)c3Cl)CC2)c1 | 0.361
CNC(=O)c1ccc(OC)c(OCCCCN2CCN(c3cccc(Cl)c3Cl)CC2)c1 | 0.026

(A) CCNC(=O)c1cccc(OCCCCN2CCN(c3cccc(Cl)c3Cl)CC2)c1
(B) CNC(=O)c1ccccc1OCCCCN1CCN(c2cccc(Cl)c2Cl)CC1
Query: // returns A or B , whichever has the lower EC50 Please reply using the label of the selected record.
Response: A
(A: 0.101 µM, B: 0.309 µM)

(I) CNC(=O)c1cc(OCCCCN2CCN(c3cccc(Cl)c3Cl)CC2)ccc1F
(II) CNC(=O)c1cc(C)cc(OCCCCN2CCN(c3cccc(Cl)c3Cl)CC2)c1
Query: Lower value of EC50 belongs to which: I or II ? Your choice should be expressed through its label.
Response: I
(I: 0.0072 µM, II: 0.0972 µM)

###

target: 5-hydroxytryptamine receptor 2A (Homo sapiens); assay: Antagonistic activity at human 5-HT2A receptor assessed as calcium flux after 10 mins by FLIPR assay
pIC50: −log10 of the molar value.
MEASUREMENT_LABEL: pIC50

// below: answered molecules
CNC(=O)c1cccc(OCCCCN2CCN(c3cccc(Cl)c3Cl)CC2)c1F | 7.52
CNC(=O)c1cc(F)cc(OCCCCN2CCN(c3cccc(Cl)c3Cl)CC2)c1 | 5.88
CNC(=O)c1cc(OCCCCN2CCC(c3noc4cc(F)ccc34)CC2)ccc1F | 7.82
CNC(=O)c1ccc(Cl)c(OCCCCN2CCN(c3cccc(Cl)c3Cl)CC2)c1 | 5.86
CNC(=O)c1ccc(OC)c(OCCCCN2CCN(c3cccc(Cl)c3Cl)CC2)c1 | 6.08

(P) CCCCCNC(=O)c1cccc(OCCCCN2CCN(c3cccc(Cl)c3Cl)CC2)c1
(Q) CNC(=O)c1cc(OCCCCN2CCN(c3cccc(Cl)c3Cl)CC2)ccc1Cl
(R) CNC(=O)c1cccc(OCCCCN2CCN(c3cccc4sccc34)CC2)c1
(S) CNC(=O)c1cc(OCCCCN2CCN(c3cccc4c3OC(F)(F)O4)CC2)ccc1F
(T) CNC(=O)c1cc(OCCCCN2CCN(c3nsc4ccccc34)CC2)ccc1F
Query: Please produce an ascending ranking of these molecules based on pIC50. Reply: labels, ordered per the request.
Response: S, P, Q, R, T
(S: 5.72, P: 5.96, Q: 6.47, R: 6.67, T: 7.46)

###

target: 5-hydroxytryptamine receptor 2A (Homo sapiens, UniProt P28223); assay: Antagonistic activity at human 5-HT2A receptor assessed as calcium flux after 10 mins by FLIPR assay
Sequence (P28223 whole entry): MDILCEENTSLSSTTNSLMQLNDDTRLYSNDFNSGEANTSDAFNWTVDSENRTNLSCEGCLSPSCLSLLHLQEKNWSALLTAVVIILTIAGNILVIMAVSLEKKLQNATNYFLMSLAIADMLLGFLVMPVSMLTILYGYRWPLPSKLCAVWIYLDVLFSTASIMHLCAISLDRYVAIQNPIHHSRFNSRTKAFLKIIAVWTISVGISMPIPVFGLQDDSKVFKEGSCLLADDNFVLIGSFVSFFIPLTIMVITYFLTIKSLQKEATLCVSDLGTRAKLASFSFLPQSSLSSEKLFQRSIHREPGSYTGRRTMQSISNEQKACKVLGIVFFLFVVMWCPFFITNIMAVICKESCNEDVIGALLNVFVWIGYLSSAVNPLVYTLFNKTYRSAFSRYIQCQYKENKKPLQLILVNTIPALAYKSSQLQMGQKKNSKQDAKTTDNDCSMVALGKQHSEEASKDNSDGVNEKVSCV
pIC50: −log10 of the molar value.
MEASUREMENT_LABEL: pIC50

CCNC(=O)c1cccc(OCCCCN2CCN(c3cccc(Cl)c3Cl)CC2)c1 | 6.17

(a) CNC(=O)c1ccc(OCCCCN2CCN(c3cccc(Cl)c3Cl)CC2)cc1
(b) CNC(=O)c1cc(OCCCCN2CCN(c3cccc(Cl)c3Cl)CC2)cc(C(C)=O)c1
Query: Pick one: a or b . Which has the bigger pIC50 number? Response format: the label of the selected entry.
Response: b

(a) NC(=O)c1cccc(OCCCCN2CCN(c3cccc(Cl)c3Cl)CC2)c1
(b) CNC(=O)c1cc(OCCCCN2CCN(c3cccc(Cl)c3Cl)CC2)ccc1C
Query: Given the listed records, identify the one among a and b with higher pIC50. Identify your pick by its label.
Response: b

(I) CNC(=O)c1cc(OCCCCN2CCN(c3cccc4sccc34)CC2)ccc1F
(II) CNC(=O)c1ccccc1OCCCCN1CCN(c2cccc(Cl)c2Cl)CC1
Query: Which entry shows the lesser value of pIC50 here, I or II ? Give the label under which the chosen entry appears.
Response: II
(II: 5.66, I: 7.10)

###

molecular target: D(2) dopamine receptor (Homo sapiens); test: Antagonistic activity at human dopamine D2 receptor measured after 60 mins by Ultra Lance cAMP assay
MEASUREMENT_LABEL: IC50 (nM)

// worked examples, IC50 included
CNC(=O)c1cccc(OCCCCN2CCN(c3nsc4ccccc34)CC2)c1 | 10
CNC(=O)c1cc(OCCCCN2CCN(c3cccc(Cl)c3Cl)CC2)ccc1C | 9.8
CNC(=O)c1cccc(OCCCCN2CCC(c3noc4cc(F)ccc34)CC2)c1 | 8.5

(A) CNC(=O)c1cc(OCCCCN2CCN(c3cccc4sccc34)CC2)ccc1F
(B) CNC(=O)c1cc(OCCCCN2CCN(c3nsc4ccccc34)CC2)ccc1F
(C) CNC(=O)c1cc(F)cc(OCCCCN2CCN(c3cccc(Cl)c3Cl)CC2)c1
(D) CNC(=O)c1ccc(OCCCCN2CCN(c3cccc(Cl)c3Cl)CC2)cc1
(E) CNC(=O)c1cccc(OCCCCN2CCN(c3cccc(Cl)c3Cl)CC2)c1F
Query: Put the items in order so that reported IC50 rises from first to last. Answer with the labels in sequence, matching the requested order.
Response: B, A, D, E, C
(B: 12 nM, A: 43 nM, D: 70 nM, E: 171 nM, C: 1580 nM)

(a) CNC(=O)c1cc(OCCCCN2CCN(c3cccc(Cl)c3Cl)CC2)ccc1Cl
(b) CCCCCNC(=O)c1cccc(OCCCCN2CCN(c3cccc(Cl)c3Cl)CC2)c1
Query: In the pair a and b , the larger recorded IC50 belongs to which? Label of pick, please.
Response: a
(a: 34.9 nM, b: 16.8 nM)

###

biological target: 5-hydroxytryptamine receptor 1A (Homo sapiens, UniProt P08908); experiment: Agonistic activity at human 5-HT1A receptor measured after 60 mins by Ultra Lance cAMP assay
pEC50: −log10 of the molar value.
MEASUREMENT_LABEL: pEC50

Worked set:
CNC(=O)c1cc(OCCCCN2CCC(c3noc4cc(F)ccc34)CC2)ccc1F | 7.89
CNC(=O)c1cccc(OCCCCN2CCN(c3cccc(Cl)c3Cl)CC2)c1OC | 6.92

(P) CNC(=O)c1cccc(OCCCCN2CCN(c3cccc(Cl)c3Cl)CC2)c1F
(Q) CNC(=O)c1ccc(OCCCCN2CCN(c3cccc(Cl)c3Cl)CC2)cc1
Query: Look at P and Q . Which one has the lower recorded pEC50 number? Kindly state the label of the option you pick.
Response: P
(P: 6.52, Q: 6.91)

(P) CNC(=O)c1cc(OCCCCN2CCN(c3cccc(Cl)c3Cl)CC2)ccc1Cl
(Q) CNC(=O)c1cccc(OCCCCN2CCN(c3cccc(Cl)c3Cl)CC2)c1C
Query: Recorded pEC50 values differ for P and Q ; which one is higher? # respond with the chosen item's label
Response: P

(P) CNC(=O)c1cc(OCCCCN2CCN(c3nsc4ccccc34)CC2)ccc1F
(Q) CNC(=O)c1cccc(OCCCCN2CCN(c3nsc4ccccc34)CC2)c1
Query: Please state the entry with greater pEC50 among P and Q . Return value: the label identifying the chosen record.
Response: P
